system: Human alphaherpesvirus 1; assay: Inhibitory concentration against HSV-1 in plaque reduction assay
Catalogue of IC50 values
reported property: IC50

[
  {
    "molecule": "OCCOCn1cc(I)c2c(Cl)ncnc21",
    "reported property": "IC50",
    "measured": "> 100 µM"
  },
  {
    "molecule": "Nc1nc2c(ncn2COC(CO)CO)c(=O)[nH]1 [GANCICLOVIR]",
    "reported property": "IC50",
    "measured": "3 µM"
  },
  {
    "molecule": "CN(C)c1ncnc2c1ccn2COCCO",
    "reported property": "IC50",
    "measured": "> 100 µM"
  },
  {
    "molecule": "CCNc1ncnc2c1c(Cl)cn2COCCO",
    "reported property": "IC50",
    "measured": "> 100 µM"
  },
  {
    "molecule": "Nc1ncnc2c1c(Cl)cn2COCCO",
    "reported property": "IC50",
    "measured": "77 µM"
  },
  {
    "molecule": "CCNc1ncnc2c1c(Br)cn2COCCO",
    "reported property": "IC50",
    "measured": "> 320 µM"
  },
  {
    "molecule": "OCCOCn1cc(Br)c2c(Cl)ncnc21",
    "reported property": "IC50",
    "measured": "> 100 µM"
  }
]

###

Catalogue of IC50 values
test system: Human alphaherpesvirus 1; assay: Inhibitory concentration against HSV-1 in plaque reduction assay
reported property: IC50

[
  {
    "smiles text": "OCCOCn1cc(Cl)c2c(Cl)ncnc21",
    "system under test": "Human alphaherpesvirus 1",
    "measured": "> 100 µM"
  },
  {
    "smiles text": "Nc1ncnc2c1c(Br)cn2COCCO",
    "system under test": "Human alphaherpesvirus 1",
    "measured": "16 µM"
  },
  {
    "smiles text": "COc1ncnc2c1ccn2COCCO",
    "system under test": "Human alphaherpesvirus 1",
    "measured": "> 100 µM"
  },
  {
    "smiles text": "CNc1ncnc2c1c(Cl)cn2COCCO",
    "system under test": "Human alphaherpesvirus 1",
    "measured": "> 100 µM"
  },
  {
    "smiles text": "CNc1ncnc2c1c(Br)cn2COCCO",
    "system under test": "Human alphaherpesvirus 1",
    "measured": "> 100 µM"
  },
  {
    "smiles text": "CNc1ncnc2c1ccn2COCCO",
    "system under test": "Human alphaherpesvirus 1",
    "measured": "> 100 µM"
  },
  {
    "smiles text": "Nc1nc2c(ncn2COCCO)c(=O)[nH]1",
    "system under test": "Human alphaherpesvirus 1",
    "measured": "2.6 µM"
  },
  {
    "smiles text": "Nc1ncnc2c1c(I)cn2COCCO",
    "system under test": "Human alphaherpesvirus 1",
    "measured": "100 µM"
  }
]

###

Catalogue of pIC50 values
experiment: Inhibition against human neoplastic cell line(KB cells); type: functional, cell-based; conditions: read-out: I50
pIC50: −log10 of the molar value.

[
  {
    "smiles text": "Nc1ncnc2c1c(Cl)cn2COCCO",
    "pIC50": 6.09
  },
  {
    "smiles text": "Nc1ncnc2c1c(I)cn2COCCO",
    "pIC50": 5.92
  }
]
